B1: TPR t1 (parent)
chain: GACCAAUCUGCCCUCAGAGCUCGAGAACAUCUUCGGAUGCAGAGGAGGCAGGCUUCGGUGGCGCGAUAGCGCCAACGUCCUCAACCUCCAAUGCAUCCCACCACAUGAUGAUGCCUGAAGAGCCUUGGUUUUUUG

# Variants of: B1
# procedure-summary: polymerase ribozyme fitness, log enrichment relative to wild type (log ratio); higher = more active; in vitro selection for triplet polymerase activity
metric-name: polymerase ribozyme fitness (log ratio)

A16U C40U U87G U92A :: -5.02
C56G G58C :: 0.394
U32A A43G C88U G93A C114G :: -5.05
C11A U109A :: -6.59
C4G G39U A46C C72A U87G C88G :: -3.06
G39A G44U C82A A95C C115G :: -3.83
A6U G10A G71A :: 0.159
C8A A75U C85A A90C G93A :: -3.24
A6C A41G C70U G117U :: -7.14
C8A U9G C94G :: -0.653
U59C G122A C123U G128C :: -0.638
A26U A66G :: -4.28
C13U G117A :: -1.27
C11G A18U A46U G57A :: -4.09
C12A C56A C70U C102A C104U :: -2.58
U14A A18C G113A C123U :: -4.67
C64A C89A G117C G135U :: -5.9
C11U C72A :: 0.246
C53A G61C U78C C85U G93A :: -0.976
G93U U132C :: -1.31
A6C G93A :: -1.25
A29G G71U G110A :: -2.82
A37C C49A G69U G77C C85A :: -3.32
A18U U54A A83U :: -4.98
U32C C56A C80U :: -1.66
G10U C11G G47C G58A C62G :: -3.87
A103G G117A :: -4.42
C11G C53U C82U :: 0.05
U9G C34U U59A A103U :: -5.76
A6G C13G A111C U112A :: -1.87
A2C A16U C72A U125A :: -3.54
G42A C62U :: -2.15
A24G G36U C56U C101U :: -3.37
U9C G19C C70U :: -3.22
U55G G61A C73U U81A C114A A119U :: -3.58
U7A A29U G60U C97U G113C G120U U133A :: -4.07
C80A U109G :: -5.76
G19A G51U G60A C124U :: -5.85
C13U C104A :: -1.47
C76A G117A C124A :: -0.549

// data source = the RNAGym collection of RNA variant scans (doi:10.1073/pnas.2313332121)
